Consider the following binders and their measured Kd readings.
target: GmRLK18-1 LRR domain expressed in E. coli (soybean (Glycine max)); assay: fluorescence polarisation; FITC-labelled peptides in 20 mM phosphate buffer pH 6.9 in a cuvette, 5 nM aliquots, increase in polarisation; baseline of non-CLE and non-LRR peptides subtracted; Kd from double reciprocal Scatchard plots; 3 repeats with 3 protein preparations; apparent for peptide L
No end group written: not given here.
Express it in nM; write the number only.

Solved cases below.
Exercise: Need Kd, item KGLGLHEEELRTVPSGPDPLHHHVNPPRQPR (not fully specified (N-terminus); also: labeled with FITC) [CLE peptide 3L]
Key: 65

Exercise: Another binder to look at: RAELDFNYMSKRRVPNGPDPIHNRRAGNSGR (not fully specified (N-terminus); also: labeled with FITC) [CLE peptide 36L]
Key: 49

Exercise: Please answer likewise for SKRRVPNGPDPIHNR (not fully specified (N-terminus); also: labeled with FITC) [CLE peptide 36]
Key: 14

Exercise: Okay, and DLPLAPADRLAGGPDPQHNVRAPPRKP (not fully specified (N-terminus); also: labeled with FITC) [CLE peptide 2L] ?
Key: 142

***
Exercise: Consider the binder shown here: AHEVPSGPNPISNR (not fully specified (N-terminus); also: labeled with FITC) [CLE peptide T] What is its recorded Kd?
Key: 20
